Where do the numbers come from? From ChEMBL document CHEMBL5620387.

Molecular target: Cytochrome P450 1A1 (Homo sapiens, UniProt P04798)
Sequence (P04798 whole entry): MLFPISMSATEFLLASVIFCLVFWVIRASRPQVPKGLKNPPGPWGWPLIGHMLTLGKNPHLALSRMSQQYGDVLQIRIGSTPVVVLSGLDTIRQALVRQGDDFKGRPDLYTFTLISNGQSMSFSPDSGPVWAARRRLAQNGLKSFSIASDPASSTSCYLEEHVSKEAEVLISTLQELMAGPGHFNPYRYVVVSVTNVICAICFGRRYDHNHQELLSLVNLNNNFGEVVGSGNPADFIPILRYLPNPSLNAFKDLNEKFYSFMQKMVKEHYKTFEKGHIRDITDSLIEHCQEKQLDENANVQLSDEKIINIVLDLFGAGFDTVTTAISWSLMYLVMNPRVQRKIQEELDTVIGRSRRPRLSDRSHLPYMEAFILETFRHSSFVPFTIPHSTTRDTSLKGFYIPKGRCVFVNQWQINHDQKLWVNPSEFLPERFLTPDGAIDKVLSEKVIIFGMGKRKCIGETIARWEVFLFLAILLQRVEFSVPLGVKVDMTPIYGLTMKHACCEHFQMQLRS
Assay: Inhibition of human recombinant CYP1A1 assessed as fluorescence of resorufin
pIC50: −log10 of the molar value.

Line Notation: O=C(/C=C/c1ccccc1)c1ccc(C(F)(F)F)cc1
pIC50: 6.56

Line Notation: COc1ccc(/C=C/C(=O)c2ccc(C(F)(F)F)cc2)c(OC)c1
pIC50: 5.77

Line Notation: O=c1cc(-c2ccccc2)oc2c1ccc1ccccc12
pIC50: 8.13

====

Let's look at some compounds and their measured half-life.
Assay: Metabolic stability in human liver microsomes assessed as half life measured after 60 mins by LC-UV analysis
Assay type: ADME, Microsome

Line Notation: COc1cc(OC)c(/C=C/C(=O)c2ccc(C(F)(F)F)cc2)cc1Cl
half-life (min): 64.5

Line Notation: C[C@]12CC[C@H]3[C@@H](CCC4=CC(=O)CC[C@@]43C)[C@@H]1CC[C@@H]2O
half-life (min): 58.2

Line Notation: COc1ccc(/C=C/C(=O)c2ccc(C(F)(F)F)cc2)c(OC)c1
half-life (min): 28.9

Line Notation: COc1cc(O)ccc1/C=C/C(=O)c1ccc(C(F)(F)F)cc1
half-life (min): 35.6

====

Target: Cytochrome P450 2E1 (Homo sapiens, UniProt P05181)
Sequence (P05181 whole entry): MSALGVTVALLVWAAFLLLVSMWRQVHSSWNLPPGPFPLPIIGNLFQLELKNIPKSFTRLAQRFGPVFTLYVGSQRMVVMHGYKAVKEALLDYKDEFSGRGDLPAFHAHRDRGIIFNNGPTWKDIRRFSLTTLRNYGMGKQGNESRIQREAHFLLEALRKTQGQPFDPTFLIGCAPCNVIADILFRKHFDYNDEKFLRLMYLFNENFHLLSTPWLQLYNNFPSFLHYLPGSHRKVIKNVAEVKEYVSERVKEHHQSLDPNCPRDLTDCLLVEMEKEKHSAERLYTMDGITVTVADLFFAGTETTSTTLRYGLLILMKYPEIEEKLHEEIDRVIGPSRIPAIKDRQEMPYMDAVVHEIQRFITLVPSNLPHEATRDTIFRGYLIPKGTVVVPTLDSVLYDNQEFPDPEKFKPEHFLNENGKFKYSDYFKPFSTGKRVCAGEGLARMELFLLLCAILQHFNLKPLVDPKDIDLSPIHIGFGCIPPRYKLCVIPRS

Line Notation: COc1cc(OC)c(/C=C/C(=O)c2ccc(C(F)(F)F)cc2)cc1Cl
Tested System: Cytochrome P450 2E1 (Homo sapiens, UniProt P05181)
IC50: > 100 µM

====

Target: Cytochrome P450 1A2 (Homo sapiens)
Sequence (P05177 whole entry): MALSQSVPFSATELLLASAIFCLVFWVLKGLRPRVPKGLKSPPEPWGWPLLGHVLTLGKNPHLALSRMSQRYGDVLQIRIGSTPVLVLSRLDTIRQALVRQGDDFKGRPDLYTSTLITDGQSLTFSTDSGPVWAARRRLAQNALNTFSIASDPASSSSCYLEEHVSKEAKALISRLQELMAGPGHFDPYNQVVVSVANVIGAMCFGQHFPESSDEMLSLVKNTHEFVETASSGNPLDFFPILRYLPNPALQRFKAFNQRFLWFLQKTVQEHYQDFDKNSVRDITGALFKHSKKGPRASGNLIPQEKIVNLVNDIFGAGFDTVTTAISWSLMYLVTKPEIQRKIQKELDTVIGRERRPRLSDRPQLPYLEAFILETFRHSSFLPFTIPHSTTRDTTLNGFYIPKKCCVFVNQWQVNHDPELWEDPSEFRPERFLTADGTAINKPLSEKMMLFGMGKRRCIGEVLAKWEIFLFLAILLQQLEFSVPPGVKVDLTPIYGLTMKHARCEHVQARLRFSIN
Assay: Inhibition of human CYP1A2 in human liver microsomes by LC-MS/MS analysis
Format: ADME, Microsome
Readout Kind: IC50

Line Notation: COc1cc(OC)c(/C=C/C(=O)c2ccc(C(F)(F)F)cc2)cc1Cl
Result: > 100 µM

====

Target: Cytochrome P450 3A4 (Homo sapiens, UniProt P08684)
Sequence (P08684 whole entry): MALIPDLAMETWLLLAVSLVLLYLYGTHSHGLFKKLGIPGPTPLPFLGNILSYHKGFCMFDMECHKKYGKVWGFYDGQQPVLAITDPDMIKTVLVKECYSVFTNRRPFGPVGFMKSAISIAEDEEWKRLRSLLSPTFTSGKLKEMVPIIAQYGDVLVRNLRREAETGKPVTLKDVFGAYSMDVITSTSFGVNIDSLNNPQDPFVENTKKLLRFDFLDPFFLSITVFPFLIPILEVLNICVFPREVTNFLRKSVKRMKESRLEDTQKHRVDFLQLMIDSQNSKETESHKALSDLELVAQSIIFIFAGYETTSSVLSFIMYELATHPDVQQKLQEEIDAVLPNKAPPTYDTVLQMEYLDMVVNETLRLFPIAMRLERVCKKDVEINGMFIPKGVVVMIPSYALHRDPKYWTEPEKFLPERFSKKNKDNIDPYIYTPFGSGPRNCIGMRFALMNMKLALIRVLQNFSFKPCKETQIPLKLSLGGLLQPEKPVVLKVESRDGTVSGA
pIC50: −log10 of the molar value.

Line Notation: COc1cc(OC)c(/C=C/C(=O)c2ccc(C(F)(F)F)cc2)cc1Cl
pIC50: < 4.00

====

Assay: Metabolic stability in human liver microsomes assessed as relative remaining concentration measured after 60 mins by LC-UV analysis
Assay type: ADME, Microsome
Settings: read-out: INH
Below is a list of entries, each paired with its recorded remaining at 1 h value.

Line Notation: C[C@]12CC[C@H]3[C@@H](CCC4=CC(=O)CC[C@@]43C)[C@@H]1CC[C@@H]2O
Unit Info: %
remaining at 1 h: 43.7
--
Line Notation: COc1ccc(/C=C/C(=O)c2ccc(C(F)(F)F)cc2)c(OC)c1
Unit Info: %
remaining at 1 h: 11.8
--
Line Notation: COc1cc(OC)c(/C=C/C(=O)c2ccc(C(F)(F)F)cc2)cc1Cl
Unit Info: %
remaining at 1 h: 54.5
--
Line Notation: COc1cc(O)ccc1/C=C/C(=O)c1ccc(C(F)(F)F)cc1
Unit Info: %
remaining at 1 h: 21

====

Target: Cytochrome P450 1B1 (Homo sapiens, UniProt Q16678)
Sequence (Q16678 whole entry): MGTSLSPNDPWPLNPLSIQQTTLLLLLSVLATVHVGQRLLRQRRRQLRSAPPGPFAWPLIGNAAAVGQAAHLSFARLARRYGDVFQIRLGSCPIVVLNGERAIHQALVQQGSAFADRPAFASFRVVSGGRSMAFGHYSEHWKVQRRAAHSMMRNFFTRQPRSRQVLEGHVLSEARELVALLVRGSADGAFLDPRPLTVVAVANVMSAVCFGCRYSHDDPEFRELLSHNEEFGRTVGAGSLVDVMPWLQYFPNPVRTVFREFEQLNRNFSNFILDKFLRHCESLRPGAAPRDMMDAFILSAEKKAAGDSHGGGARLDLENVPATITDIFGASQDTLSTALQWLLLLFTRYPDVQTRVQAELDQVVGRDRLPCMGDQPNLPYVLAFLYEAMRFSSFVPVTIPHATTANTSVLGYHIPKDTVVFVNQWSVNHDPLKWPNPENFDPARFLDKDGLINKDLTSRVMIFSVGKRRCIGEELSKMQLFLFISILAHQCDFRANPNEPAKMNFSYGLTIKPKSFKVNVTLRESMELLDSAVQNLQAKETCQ
Experiment: Inhibition of human recombinant CYP1B1 assessed as fluorescence of resorufin
pIC50: −log10 of the molar value.
# binarize pIC50: threshold 7 inclusive, high side criterion met, low side criterion not met

Molecule: O=C(/C=C/c1ccccc1)c1ccccc1 [CHALCONE]
Label Class: criterion not met

Molecule: O=C(/C=C/c1ccccc1)c1ccc(Br)cc1
Label Class: criterion met

Molecule: O=C(/C=C/c1ccccc1)c1ccc([N+](=O)[O-])cc1
Label Class: criterion not met

Molecule: Cc1ccc(C(=O)/C=C/c2ccccc2)cc1
Label Class: criterion met

Molecule: COc1ccc(/C=C/C(=O)c2ccc(C(F)(F)F)cc2)c(OC)c1
Label Class: criterion met

Molecule: Nc1ccc(C(=O)/C=C/c2ccccc2)cc1
Label Class: criterion not met

Molecule: COc1ccc(C(=O)/C=C/c2ccccc2)cc1 [4'-METHOXYCHALCONE]
Label Class: criterion not met

Molecule: O=C(/C=C/c1ccccc1)c1ccc(C(F)(F)F)cc1
Label Class: criterion met

Molecule: O=C(/C=C/c1ccccc1)c1ccc(O)cc1 [4'-HYDROXYCHALCONE]
Label Class: criterion not met

Molecule: O=C(/C=C/c1ccccc1)c1ccc(Cl)cc1
Label Class: criterion met
